Reported IC50 is given for each of the following compounds.
# tested.system: Cholinesterase (Homo sapiens, UniProt P06276)
# Sequence (P06276 whole entry): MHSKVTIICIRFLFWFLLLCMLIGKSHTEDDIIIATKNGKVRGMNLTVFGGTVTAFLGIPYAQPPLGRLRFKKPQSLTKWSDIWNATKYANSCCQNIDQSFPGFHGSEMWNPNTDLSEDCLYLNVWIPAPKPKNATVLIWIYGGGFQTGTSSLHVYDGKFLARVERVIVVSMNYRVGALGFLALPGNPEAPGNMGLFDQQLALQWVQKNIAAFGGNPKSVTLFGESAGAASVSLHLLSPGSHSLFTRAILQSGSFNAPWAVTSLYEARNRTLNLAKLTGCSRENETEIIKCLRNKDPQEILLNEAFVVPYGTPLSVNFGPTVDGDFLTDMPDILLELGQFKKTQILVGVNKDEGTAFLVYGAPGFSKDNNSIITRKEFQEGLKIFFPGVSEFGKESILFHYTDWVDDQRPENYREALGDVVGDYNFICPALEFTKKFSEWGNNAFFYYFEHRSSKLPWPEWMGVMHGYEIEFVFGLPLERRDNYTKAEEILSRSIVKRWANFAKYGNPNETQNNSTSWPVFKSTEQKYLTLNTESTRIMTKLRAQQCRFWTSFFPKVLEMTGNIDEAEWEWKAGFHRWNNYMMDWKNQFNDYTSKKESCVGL
# procedure.summary: Inhibition of human serum BuChE using butyrylthiocholine iodide as substrate preincubated with enzyme for 10 mins followed by substrate addition and measured by Ellman's method

smiles.repr | measurement.units | IC50
Cc1ccc(S(=O)(=O)SCc2ccc(Cl)cc2)cc1 | nM | 315
Cc1ccc(S(=O)(=O)SCc2ccccc2)cc1 | nM | 318
Cc1ccc(S(=O)(=O)SCc2ccc(C#N)cc2)cc1 | nM | 203

###

pKi: −log10 of the molar value.
Quick record of pKi values for UniProt P22303.
parameter.measured: pKi

smiles.repr | reported.result
Cc1ccc(S(=O)(=O)SCc2ccccc2)cc1 | 6.41
Cc1ccc(S(=O)(=O)SCc2ccc(C(F)(F)F)cc2)cc1 | 6.83
COc1ccc(CSS(=O)(=O)c2ccc(C)cc2)cc1 | 6.66
Cc1ccc(S(=O)(=O)SCc2ccc(OC(F)(F)F)cc2)cc1 | 6.70
Cc1ccc(S(=O)(=O)SCc2ccc(Cl)cc2)cc1 | 6.15
Cc1ccc(S(=O)(=O)SCc2ccc(C#N)cc2)cc1 | 6.78
Cc1ccc(S(=O)(=O)SCc2ccc([N+](=O)[O-])cc2)cc1 | 6.60
Cc1ccc(S(=O)(=O)SCc2ccc(C(C)C)cc2)cc1 | 7.59
Cc1ccc(S(=O)(=O)SCc2ccc(F)cc2)cc1 | 6.49

###

# tested.system: Acetylcholinesterase (Homo sapiens, UniProt P22303)
# Sequence (P22303 whole entry): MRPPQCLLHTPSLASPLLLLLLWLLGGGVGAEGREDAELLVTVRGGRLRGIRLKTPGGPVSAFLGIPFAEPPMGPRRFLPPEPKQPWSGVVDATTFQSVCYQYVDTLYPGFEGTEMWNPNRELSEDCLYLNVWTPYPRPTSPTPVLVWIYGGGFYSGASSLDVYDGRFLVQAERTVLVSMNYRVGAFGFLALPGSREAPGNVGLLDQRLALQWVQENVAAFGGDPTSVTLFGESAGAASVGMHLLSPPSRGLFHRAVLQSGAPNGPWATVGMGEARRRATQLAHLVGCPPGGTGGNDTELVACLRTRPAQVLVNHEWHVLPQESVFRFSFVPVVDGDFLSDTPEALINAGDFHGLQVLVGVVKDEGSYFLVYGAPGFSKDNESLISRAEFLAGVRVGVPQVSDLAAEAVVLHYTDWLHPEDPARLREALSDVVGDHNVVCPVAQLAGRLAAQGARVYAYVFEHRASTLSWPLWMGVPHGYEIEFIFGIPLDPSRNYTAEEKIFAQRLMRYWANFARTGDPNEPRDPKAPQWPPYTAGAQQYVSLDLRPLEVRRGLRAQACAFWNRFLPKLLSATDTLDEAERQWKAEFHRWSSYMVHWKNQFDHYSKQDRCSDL
pIC50: −log10 of the molar value.
Reported pIC50 is given for each of the following molecules.
parameter.measured: pIC50

smiles.repr | tested.system | reported.result
Cc1ccc(S(=O)(=O)SCc2ccc(Cl)cc2)cc1 | Acetylcholinesterase (Homo sapiens, UniProt P22303) | 6.32
Cc1ccc(S(=O)(=O)SCc2ccc(F)cc2)cc1 | Acetylcholinesterase (Homo sapiens, UniProt P22303) | 6.51
Cc1ccc(S(=O)(=O)SCc2ccc(OC(F)(F)F)cc2)cc1 | Acetylcholinesterase (Homo sapiens, UniProt P22303) | 6.89
Cc1ccc(S(=O)(=O)SCc2ccc([N+](=O)[O-])cc2)cc1 | Acetylcholinesterase (Homo sapiens, UniProt P22303) | 6.67
Cc1ccc(S(=O)(=O)SCc2ccccc2)cc1 | Acetylcholinesterase (Homo sapiens, UniProt P22303) | 6.29
Cc1ccc(S(=O)(=O)SCc2ccc(C(C)C)cc2)cc1 | Acetylcholinesterase (Homo sapiens, UniProt P22303) | 7.92
Cc1ccc(S(=O)(=O)SCc2ccc(C(F)(F)F)cc2)cc1 | Acetylcholinesterase (Homo sapiens, UniProt P22303) | 7.06
Cc1ccc(S(=O)(=O)SCc2ccc(C#N)cc2)cc1 | Acetylcholinesterase (Homo sapiens, UniProt P22303) | 6.71
COc1ccc(CSS(=O)(=O)c2ccc(C)cc2)cc1 | Acetylcholinesterase (Homo sapiens, UniProt P22303) | 6.31

###

# tested.system: Cholinesterase (Homo sapiens)
# procedure.summary: Inhibition of human serum BuChE using butyrylthiocholine iodide as substrate preincubated with enzyme for 10 mins followed by substrate addition and measured by Ellman's method
pIC50: −log10 of the molar value.
Reported pIC50 is given for each of the following molecules.
parameter.measured: pIC50

smiles.repr | tested.system | reported.result
Cc1ccc(S(=O)(=O)SCc2ccc(C(C)C)cc2)cc1 | Cholinesterase (Homo sapiens) | 7.07
Cc1ccc(S(=O)(=O)SCc2ccc([N+](=O)[O-])cc2)cc1 | Cholinesterase (Homo sapiens) | 6.67
COc1ccc(CSS(=O)(=O)c2ccc(C)cc2)cc1 | Cholinesterase (Homo sapiens) | 6.70
Cc1ccc(S(=O)(=O)SCc2ccc(OC(F)(F)F)cc2)cc1 | Cholinesterase (Homo sapiens) | 7.27
Cc1ccc(S(=O)(=O)SCc2ccc(F)cc2)cc1 | Cholinesterase (Homo sapiens) | 6.52
Cc1ccc(S(=O)(=O)SCc2ccc(C(F)(F)F)cc2)cc1 | Cholinesterase (Homo sapiens) | 6.93
